ASSAY SYSTEM: RORγt ligand-binding domain (RORγt-LBD) (Homo sapiens, UniProt P51449)
Construct: 20 nM recombinantly expressed RORγ-LBD fused to GST
PROCEDURE SUMMARY: Time-resolved FRET (TR-FRET) RORγt coactivator assay
ASSAY CONDITIONS: GST-RORγ-LBD, biotinylated RIP140 peptide, coactivator displacement
Source text: Time-resolved FRET (TR-FRET) RORγt coactivator assay was used to identify RORγ modulator compounds with ligand-dependent coactivator displacement. […] For reduction of background from compound fluorescence, TR-FRET method makes use of generic fluorophore labels and time resolved detection. […]
MEASURED METRIC: IC50

MOLECULE	RESULT
O=C(O)CCc1c[nH]c2ccc(CC(=O)NC(CC3CCCCC3)c3ccccc3N3CCCCC3)cc12 (stereo not shown)	1000 to 10000 nM
Cc1ccc(N2CCCCC2)c(C(NC(=O)Cc2ccc3[nH]cc(CCC(=O)O)c3c2)c2ccccc2)c1 (stereo not shown)	< 1000 nM
COc1ccc(C(NC(=O)Cc2ccc3[nH]cc(CCC(=O)OC(C)(C)C)c3c2)c2ccccc2)c(C)c1 (stereo not shown)	< 1000 nM
N=C(N)NC(=O)CCc1c[nH]c2ccc(CC(=O)NC(c3ccccc3)c3ccccc3N3CCCCC3)cc12 (stereo not shown)	1000 to 10000 nM
COc1ccc(N2CCCCC2)c(C(NC(=O)Cc2ccc3[nH]cc(CCC(=O)O)c3c2)c2ccccc2)c1 (stereo not shown)	< 1000 nM
CCOc1ccc(C(NC(=O)Cc2ccc3[nH]cc(CCC(=O)O)c3c2)c2ccccc2)c(N2CCCCC2)c1 (stereo not shown)	< 1000 nM
Cc1ccc(N2CCCCC2)c(C(NC(=O)Cc2ccc3[nH]cc(CCC(=O)OC(C)(C)C)c3c2)c2ccccc2)c1 (stereo not shown)	1000 to 10000 nM

----------
ASSAY SYSTEM: human RORγt (Homo sapiens)
Sequence (P51449 1-497 isoform P51449-2): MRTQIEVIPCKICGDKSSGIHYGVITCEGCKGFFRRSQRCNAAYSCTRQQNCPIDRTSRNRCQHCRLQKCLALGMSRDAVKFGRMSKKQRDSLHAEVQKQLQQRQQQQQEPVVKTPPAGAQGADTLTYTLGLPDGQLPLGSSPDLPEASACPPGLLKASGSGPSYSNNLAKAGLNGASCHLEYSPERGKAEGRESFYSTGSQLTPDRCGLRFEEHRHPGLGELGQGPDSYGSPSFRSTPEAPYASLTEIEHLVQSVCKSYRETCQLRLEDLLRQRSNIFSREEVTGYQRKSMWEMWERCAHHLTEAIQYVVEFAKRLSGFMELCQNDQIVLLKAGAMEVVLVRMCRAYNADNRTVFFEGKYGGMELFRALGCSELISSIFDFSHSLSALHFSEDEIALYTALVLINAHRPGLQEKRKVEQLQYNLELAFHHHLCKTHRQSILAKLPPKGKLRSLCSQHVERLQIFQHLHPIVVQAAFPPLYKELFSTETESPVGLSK
PROCEDURE SUMMARY: IL-17 secretion from EL4 murine lymphoma overexpressing human RORγt
Format: cell-based
Parameters: expressed in transfected cells; host or cells: EL-4 murine lymphoma
ASSAY CONDITIONS: IL-17 secretion inhibition, PMA and ionomycin stimulation, 24 h
List of IC50 values.

COMPOUND	IC50
COC(=O)Cc1c[nH]c2ccc(CC(=O)NC(c3ccccc3)c3ccc(C)cc3N3CCCCC3)cc12 (stereo not shown)	< 1000 nM
CC(C)(C)OC(=O)CCc1c[nH]c2ccc(CC(=O)NC(c3ccccc3)c3ccc(C#N)cc3N3CCCC3)cc12 (stereo not shown)	1000 to 10000 nM
O=C(O)CCc1c[nH]c2ccc(CC(=O)NC(c3ccccc3)c3ccccc3N3CCCCCC3)cc12 (stereo not shown)	1000 to 10000 nM
O=C(O)CCCc1c[nH]c2ccc(CC(=O)NC(c3ccccc3)c3ccccc3N3CCCCC3)cc12 (stereo not shown)	1000 to 10000 nM

----------
ASSAY SYSTEM: RORγt ligand-binding domain (RORγt-LBD) (Homo sapiens)
Construct: 20 nM recombinantly expressed RORγ-LBD fused to GST
Sequence (P51449 269-508 limits assumed): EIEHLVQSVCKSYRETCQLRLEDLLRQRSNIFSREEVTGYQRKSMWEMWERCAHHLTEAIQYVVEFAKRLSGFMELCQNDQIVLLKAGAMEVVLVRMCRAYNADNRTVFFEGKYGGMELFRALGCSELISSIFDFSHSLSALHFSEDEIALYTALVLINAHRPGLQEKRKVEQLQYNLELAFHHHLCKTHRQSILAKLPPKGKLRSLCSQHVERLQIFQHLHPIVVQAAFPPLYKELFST
PROCEDURE SUMMARY: Time-resolved FRET (TR-FRET) RORγt coactivator assay
ASSAY CONDITIONS: GST-RORγ-LBD, biotinylated RIP140 peptide, coactivator displacement
pIC50: −log10 of the molar value.
List of pIC50 values.

COMPOUND	pIC50
NC(=O)c1ccc(C(NC(=O)Cc2ccc3[nH]cc(CCC(=O)O)c3c2)c2ccccc2)c(N2CCCC2)c1 (stereo not shown) [compound 63]	5.00 to 6.00
Cc1ccc(C(NC(=O)Cc2ccc3[nH]cc(CCC(=O)O)c3c2)C2CC2)c2ccccc12 (stereo not shown) [compound 164]	> 6.00
Cc1ccc(Cl)c(C(NC(=O)Cc2ccc3[nH]cc(CCC(=O)OC(C)(C)C)c3c2)c2ccccc2)c1 (stereo not shown) [Cpd. 41]	5.00 to 6.00
COc1ccc(C(NC(=O)Cc2ccc3[nH]cc(CCC(=O)OC(C)(C)C)c3c2)c2ccccc2)c(N2CCCCCC2)c1 (stereo not shown) [Cpd. 141]	> 6.00
CCN(CC)c1ccccc1C(CC(C)C)NC(=O)Cc1ccc2[nH]cc(CCC(=O)O)c2c1 (stereo not shown) [compound 174]	5.00 to 6.00
CC(C)(C)OC(=O)CCc1c[nH]c2ccc(CC(=O)NC(c3ccccc3)c3ccc(O)cc3N3CCCCC3)cc12 (stereo not shown) [compound 264]	5.00 to 6.00
CC(C)CC(NC(=O)Cc1ccc2[nH]cc(CCC(=O)O)c2c1)c1ccccc1OC(C)C (stereo not shown) [compound 241]	> 6.00

----------
List of IC50 values.
ASSAY SYSTEM: RORγt ligand-binding domain (RORγt-LBD) (Homo sapiens, UniProt P51449)
Construct: 20 nM recombinantly expressed RORγ-LBD fused to GST
PROCEDURE SUMMARY: Time-resolved FRET (TR-FRET) RORγt coactivator assay
ASSAY CONDITIONS: GST-RORγ-LBD, biotinylated RIP140 peptide, coactivator displacement
MEASURED METRIC: IC50

COMPOUND	MEASURED METRIC	RESULT
Cc1ccc(C(NC(=O)Cc2ccc3[nH]cc(CCC(=O)O)c3c2)c2nccs2)c(N2CCCCC2)c1 (stereo not shown)	IC50	< 1000 nM
CC(C)CC(NC(=O)Nc1ccc2[nH]cc(CCC(=O)OC(C)(C)C)c2c1)c1ccccc1N1CCCCC1 (stereo not shown)	IC50	1000 to 10000 nM
Cc1ccc(C(NC(=O)Cc2ccc3[nH]cc(CCC(=O)O)c3c2)c2ccccc2)c(N2CCCCCC2)c1 (stereo not shown)	IC50	< 1000 nM
Cc1ccc(C(NC(=O)Cc2ccc3[nH]cc(CC(=O)O)c3c2)c2ccccc2)c(N2CCCC2)c1 (stereo not shown)	IC50	< 1000 nM

----------
ASSAY SYSTEM: CYP2D6 (Homo sapiens)
Sequence (P10635 whole entry): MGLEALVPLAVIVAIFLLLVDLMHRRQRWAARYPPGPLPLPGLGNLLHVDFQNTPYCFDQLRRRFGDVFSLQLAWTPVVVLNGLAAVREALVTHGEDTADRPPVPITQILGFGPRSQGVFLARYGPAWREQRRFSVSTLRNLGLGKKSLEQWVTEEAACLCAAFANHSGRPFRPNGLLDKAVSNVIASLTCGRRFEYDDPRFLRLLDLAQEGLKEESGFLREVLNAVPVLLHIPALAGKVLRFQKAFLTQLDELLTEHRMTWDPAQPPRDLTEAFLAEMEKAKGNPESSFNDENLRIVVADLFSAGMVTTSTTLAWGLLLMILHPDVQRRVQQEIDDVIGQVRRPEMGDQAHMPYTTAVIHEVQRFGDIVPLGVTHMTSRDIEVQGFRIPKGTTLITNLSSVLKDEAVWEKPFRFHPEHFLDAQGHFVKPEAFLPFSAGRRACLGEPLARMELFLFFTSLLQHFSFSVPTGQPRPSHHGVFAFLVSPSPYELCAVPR
PROCEDURE SUMMARY: CYP inhibition CYP2D6 (CEREP)
Type: in vitro ADME
ASSAY CONDITIONS: human, recombinant CYP2D6, human recombinant CYP, single concentration (typically 10 μM); read-out: CYP 2D6 (% inhibition of Control)
Description: All the assays were conducted at CEREP (CEREP, France and USA). Metabolic compound stability was tested in human (CEREP, Ref 607) and mouse (CEREP, Ref: 806) microsomes. […] Briefly, CEREP's CYP inhibition assay uses traditional probe substrates, which are specific to individual CYP isoforms. […] Compounds were tested at single concentrations (typically 10 μM) and data were expressed as percent of control inhibition.
MEASURED METRIC: inhibition at 10 µM (%)

COMPOUND	NUMERIC READOUT
O=C(O)CCc1c[nH]c2ccc(CC(=O)NC(c3ccccc3)c3ccccc3N3CCCCC3)cc12 (stereo not drawn)	49
Cc1ccc(C(NC(=O)Cc2ccc3[nH]cc(CCC(=O)O)c3c2)c2ccccc2)c(N2CCCCC2)c1 (stereo not drawn)	6.2
O=C(O)CCc1c[nH]c2ccc(CC(=O)NC(c3ccccc3)c3ccc(C(F)(F)F)cc3N3CCCC3)cc12 (stereo not drawn)	78.9

----------
ASSAY SYSTEM: human RORγt (Homo sapiens, UniProt P51449)
PROCEDURE SUMMARY: IL-17 secretion from EL4 murine lymphoma overexpressing human RORγt
Assay type: cell-based
Parameters: expressed in transfected cells; host or cells: EL-4 murine lymphoma
ASSAY CONDITIONS: IL-17 secretion inhibition, PMA and ionomycin stimulation, 24 h
pIC50: −log10 of the molar value.
MEASURED METRIC: pIC50

COMPOUND	ASSAY SYSTEM	RESULT
CC(C)(C)CC(NC(=O)Cc1ccc2[nH]cc(CCC(=O)O)c2c1)c1ccccc1N1CCCCC1 (centres unmarked)	human RORγt (Homo sapiens, UniProt P51449)	5.00 to 6.00
CNC(=O)CCc1c[nH]c2ccc(CC(=O)NC(c3ccccc3)c3ccccc3N3CCCCC3)cc12 (centres unmarked)	human RORγt (Homo sapiens, UniProt P51449)	5.00 to 6.00
O=C(O)CCc1c[nH]c2ccc(CC(=O)NC(c3ccccc3)c3cc(Br)ccc3N3CCCC3)cc12 (centres unmarked)	human RORγt (Homo sapiens, UniProt P51449)	4.52 to 5.00
Cc1ccc(C(NC(=O)Cc2ccc3[nH]cc(CCC(=O)O)c3c2)c2ccccc2N2CCCCC2)o1 (centres unmarked)	human RORγt (Homo sapiens, UniProt P51449)	5.00 to 6.00
COC(=O)Cc1c[nH]c2ccc(CC(=O)NC(c3ccccc3)c3ccc(C)cc3N3CCCC3)cc12 (centres unmarked)	human RORγt (Homo sapiens, UniProt P51449)	> 6.00
COc1ccc(C(NC(=O)Cc2ccc3[nH]cc(CCC(=O)OC(C)(C)C)c3c2)c2ccccc2)c(C)c1 (centres unmarked)	human RORγt (Homo sapiens, UniProt P51449)	5.00 to 6.00
Cc1ccc(N2CCCCC2)c(C(NC(=O)Cc2ccc3[nH]cc(CCC(=O)O)c3c2)c2ccccc2)c1 (centres unmarked)	human RORγt (Homo sapiens, UniProt P51449)	5.00 to 6.00
CCN(CC)c1ccccc1C(CC(C)C)NC(=O)Cc1ccc2[nH]cc(CCC(=O)O)c2c1 (centres unmarked)	human RORγt (Homo sapiens, UniProt P51449)	5.00 to 6.00
CCNc1cc(C)ccc1C(NC(=O)Cc1ccc2[nH]cc(CCC(=O)O)c2c1)c1ccccc1 (centres unmarked)	human RORγt (Homo sapiens, UniProt P51449)	5.00 to 6.00
CC(C)(C)OC(=O)CCc1c[nH]c2ccc(CC(=O)NC(c3ccccc3)c3ccc(C(F)(F)F)cc3N3CCCC3)cc12 (centres unmarked)	human RORγt (Homo sapiens, UniProt P51449)	5.00 to 6.00
CCOC(=O)CCCc1c[nH]c2ccc(CC(=O)NC(c3ccccc3)c3ccccc3N3CCCCC3)cc12 (centres unmarked)	human RORγt (Homo sapiens, UniProt P51449)	5.00 to 6.00

Reference source: patent US9902725B2
